Study the reported IC50 values for Histone-lysine N-methyltransferase 2B (Homo sapiens) given below; they originate from different publications.

smiles_structure: Cl.Nc1cccc2c(S(=O)(=O)NCc3ccccc3)cccc12
IC50: > 20 µM
--
smiles_structure: C=CC(=O)N(C)c1nc(NC2CCN(C)CC2)c2cc(OC)c(OCCCN3CCCC3)cc2n1
IC50: > 20 µM
--
smiles_structure: C=CC(=O)NCc1cc(C(=O)NCc2c(SC)cc(C)[nH]c2=O)c(C)c(N(CC)C2CCOCC2)c1
IC50: > 10 µM
